# EXPERIMENT_DESCRIPTION: Cytotoxicity against human A549 cells after 48 hrs by MTT assay
# Type: cell-based
# EXPERIMENTAL_CONDITIONS: A549 cells
PARAMETER: GI50 at 48 h

- SMILES_INPUT: "COc1ccc2cc(/C=C3\\SC(=S)N(CC(=O)O)C3=O)c3nnnn3c2c1"
  ENDPOINT_RESULT: "> 100 µg/mL"
- SMILES_INPUT: "Cc1ccc2c(c1)cc(/C=C1\\SC(=S)N(CC(=O)O)C1=O)c1nnnn12"
  ENDPOINT_RESULT: "> 100 µg/mL"
- SMILES_INPUT: "Cc1ccc2cc(/C=C3\\SC(=S)NC3=O)c3nnnn3c2c1"
  ENDPOINT_RESULT: "> 100 µg/mL"

---

# EXPERIMENT_DESCRIPTION: Selectivity index, ratio of GI50 for human HeLa cells to MIC for Mycobacterium tuberculosis H37Ra ATCC 25177
# Format: toxicity, cell-based
# EXPERIMENTAL_CONDITIONS: read-out: Selectivity Index
PARAMETER: selectivity ratio

- SMILES_INPUT: "COc1ccc2cc(/C=C3\\SC(=S)N(CC(=O)O)C3=O)c3nnnn3c2c1"
  PARAMETER: "selectivity ratio"
  QUALIFYING_SIGN: "="
  ENDPOINT_RESULT: 1.1
- SMILES_INPUT: "CO[C@H]1/C=C/O[C@@]2(C)Oc3c(C)c(O)c4c(O)c(c(/C=N/N5CCN(C)CC5)c(O)c4c3C2=O)NC(=O)/C(C)=C\\C=C\\[C@H](C)[C@H](O)[C@@H](C)[C@@H](O)[C@@H](C)[C@H](OC(C)=O)[C@@H]1C"
  PARAMETER: "selectivity ratio"
  QUALIFYING_SIGN: ">"
  ENDPOINT_RESULT: 139
- SMILES_INPUT: "Cc1ccc2cc(/C=C3\\SC(=S)NC3=O)c3nnnn3c2c1"
  PARAMETER: "selectivity ratio"
  QUALIFYING_SIGN: "="
  ENDPOINT_RESULT: 22.2

---

# EXPERIMENT_DESCRIPTION: Antitubercular activity against Mycobacterium bovis BCG ATCC 35743 incubated for 40 mins by XTT Reduction Menadione Assay
# Format: functional, Mycobacterium bovis BCG str. ATCC 35743
# EXPERIMENTAL_CONDITIONS: Mycobacterium tuberculosis variant bovis BCG, ATCC 35743, 40 min
# MIC listing for each entry below

- SMILES_INPUT: "Cc1cccc2cc(/C=C3\\SC(=S)NC3=O)c3nnnn3c12"
  MIC: "> 250 µg/mL"
- SMILES_INPUT: "Cc1ccc2c(c1)cc(/C=C1\\SC(=S)NC1=O)c1nnnn12"
  MIC: "> 250 µg/mL"
- SMILES_INPUT: "COc1ccc2c(c1)cc(/C=C1\\SC(=S)N(CC(=O)O)C1=O)c1nnnn12"
  MIC: "> 250 µg/mL"
- SMILES_INPUT: "O=C(O)CN1C(=O)/C(=C/c2cc3ccccc3n3nnnc23)SC1=S"
  MIC: "> 250 µg/mL"
- SMILES_INPUT: "COc1ccc2cc(/C=C3\\SC(=S)N(CCC(=O)O)C3=O)c3nnnn3c2c1"
  MIC: "> 250 µg/mL"
